Measured values drawn from PubChem BioAssay AID1963432 for this set.

Tested on: SYO-1 complex spheroid growth, percent test/control
Assay details: Anticancer human tumor SYO-1 cell line growth inhibition [Asc];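 note: compound exposure lasted 7 days after spheroids grew 3 days; 100% = DMSO vehicle control viability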
Protocol conditions: second compound 0.00949 µM; first compound 0.1 µM; active compounds read low
Give viability, T/C for every item shown.
Expressed in %, but write only the number.

Query string: Given the molecule Cn1ncnc1[C@H]1c2n[nH]c(=O)c3cc(F)cc(c23)N[C@@H]1c1ccc(F)cc1 + CCN1C(C(=O)NC23CCC(C(=O)O)(CC2)CC3)C(c2cccc(Cl)c2F)C2(C(=O)Nc3cc(Cl)ccc32)C12CCCCC2 , what is its reported viability, T/C?
Result string: 7.79

Query string: Field entry: C=CC(=O)N1CCN(c2nc(=O)n(-c3c(C)ccnc3C(C)C)c3nc(-c4c(O)cccc4F)c(F)cc23)C(C)C1 (centres undefined) + CCN1C(C(=O)NC23CCC(C(=O)O)(CC2)CC3)C(c2cccc(Cl)c2F)C2(C(=O)Nc3cc(Cl)ccc32)C12CCCCC2
Result string: 104

Query string: Field entry: C=C(F)C(=O)N1CCN(c2nc(OCC3CCCN3C)nc3c2CCN(c2cccc4cccc(Cl)c24)C3)CC1CC#N (centres undefined) + CCN1C(C(=O)NC23CCC(C(=O)O)(CC2)CC3)C(c2cccc(Cl)c2F)C2(C(=O)Nc3cc(Cl)ccc32)C12CCCCC2
Result string: 99.9

Query string: Field entry: O=C(c1cc(Cc2n[nH]c(=O)c3ccccc23)ccc1F)N1CCN(C(=O)C2CC2)CC1 + CCN1C(C(=O)NC23CCC(C(=O)O)(CC2)CC3)C(c2cccc(Cl)c2F)C2(C(=O)Nc3cc(Cl)ccc32)C12CCCCC2
Result string: 93.4

* * *

Test system: SYO-1 complex spheroid growth, percent test/control
Assay details: Anticancer human tumor SYO-1 cell line growth inhibition [Asc];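 note: compound exposure lasted 7 days after spheroids grew 3 days; 100% = DMSO vehicle control viability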
Protocol conditions: second compound 0.1 µM; first compound 0.00316 µM; active compounds read low
Assay readout: viability, T/C (%)
Expressed in %, but write only the number.

Query string: Given the compound CNC(C)C(=O)NC1CN(S(=O)(=O)c2cccc(S(=O)(=O)N3CCC4CCC(C(=O)NC(c5ccccc5)c5ccccc5)N4C(=O)C(NC(=O)C(C)NC)C3)c2)CCC2CCC(C(=O)NC(c3ccccc3)c3ccccc3)N2C1=O (centres undefined) + Cc1c(S(C)(=O)=O)c(-c2cc(F)cc(N3CCN(c4ccc(NS(=O)(=O)c5ccc(NC(CCN6CCC(C(=O)OCCCP(=O)(O)O)CC6)CSc6ccccc6)c(S(=O)(=O)C(F)(F)F)c5)cc4)CC3)c2)c(-c2ccc(Cl)cc2)n1C(C)C , what is its reported viability, T/C?
Result string: 101

Query string: Field entry: COc1c(OCCCN2CCOCC2)ccc2c3n(c(=NC(=O)c4cnc(N)nc4)nc12)CCN3 + CNC(C)C(=O)NC1CN(S(=O)(=O)c2cccc(S(=O)(=O)N3CCC4CCC(C(=O)NC(c5ccccc5)c5ccccc5)N4C(=O)C(NC(=O)C(C)NC)C3)c2)CCC2CCC(C(=O)NC(c3ccccc3)c3ccccc3)N2C1=O
Result string: 107

Query string: Field entry: Cn1ncnc1[C@H]1c2n[nH]c(=O)c3cc(F)cc(c23)N[C@@H]1c1ccc(F)cc1 + Cc1c(S(C)(=O)=O)c(-c2cc(F)cc(N3CCN(c4ccc(NS(=O)(=O)c5ccc(NC(CCN6CCC(C(=O)OCCCP(=O)(O)O)CC6)CSc6ccccc6)c(S(=O)(=O)C(F)(F)F)c5)cc4)CC3)c2)c(-c2ccc(Cl)cc2)n1C(C)C
Result string: 87.1

Query string: Field entry: NC1CCC(NC2CC2c2ccccc2)CC1 (centres undefined) + CNC(C)C(=O)NC1CN(S(=O)(=O)c2cccc(S(=O)(=O)N3CCC4CCC(C(=O)NC(c5ccccc5)c5ccccc5)N4C(=O)C(NC(=O)C(C)NC)C3)c2)CCC2CCC(C(=O)NC(c3ccccc3)c3ccccc3)N2C1=O
Result string: 86.7
